test system: U2OS; experiment: Multiplex assay against U2OS; format: toxicity, cell-based; conditions: human, 48 h, 10 µM, compound concentration 10 uM, replicate 1
For each record, write down the corresponding Population Healthy Nuclei (%).
One number for each entry, in %.

The cases that follow already have their Population Healthy Nuclei (%) on record.
> print(dat)
                                   molecule   tgt  reported.value
1  CC[C@H](C)C(=O)O[C@H]1C[C@@H](C)C=C2C=C[C@H](C)[C@H](CC[C@@H]3C[C@@H](O)CC(=O)O3)[C@H]21  U2OS              78
2  CN1CCC[C@@H]1CCO[C@](C)(c1ccccc1)c1ccc(Cl)cc1.O=C(O)/C=C/C(=O)O [CLEMASTINE FUMARATE]  U2OS              25
3  COc1ncc(-c2ccc3nccc(-c4ccnnc4)c3c2)cc1NS(=O)(=O)c1ccc(F)cc1F  U2OS               9
4  Cc1csc2c(N[C@@H](C)CN3CCN(S(=O)(=O)c4ccc(Cl)c(Cl)c4)CC3)ncnc12  U2OS              30
5  OC1(c2ccc(Cl)cc2)CCN(Cc2c[nH]c3ccccc23)CC1  U2OS               6

Take each entry in turn and give its Population Healthy Nuclei (%).
1. CN(C)C(=O)N[C@H]1CC[C@H](CCN2CCN(c3cccc(Cl)c3Cl)CC2)CC1.Cl [CARIPRAZINE HYDROCHLORIDE]
2. C[C@@]1(C(=O)Nc2ccc(F)nc2)CCCN1c1nc(Nc2cc(C3CC3)n[nH]2)c2cccn2n1

Response:
59
21

Prompt: Item under review: COc1cccc([C@@H](C)NCCCc2ccccc2Cl)c1.Cl [TECALCET HYDROCHLORIDE] . Reported Population Healthy Nuclei (%)?
Response: 54

###

test system: U2OS; test: Multiplex assay against U2OS; format: toxicity, cell-based; conditions: human, 24 h, 1 µM, compound concentration 1 uM, replicate 1
Endpoint: Population Fragmented Nuclei (%)
Give bare numbers, in %.

> print(dat)
                              line.notation  reported.value
1  CN(C)CC#Cc1ccc(OCCCc2sc(N3CCc4cccc(C(=O)Nc5nc6ccccc6s5)c4C3)nc2C(=O)O)c(F)c1              19
2  C=CC(=O)Nc1cccc(C(=O)Nc2ccc(Nc3cc(-c4[nH]c(SC)nc4C)ccn3)cc2)c1              13
3  C[C@@]1(C(=O)Nc2ccc(F)nc2)CCCN1c1nc(Nc2cc(C3CC3)n[nH]2)c2cccn2n1              15

Prompt: Requested read-out: Population Fragmented Nuclei (%). Entry: Cc1[nH]c(/C=C2\C(=O)Nc3ccc(S(=O)(=O)N(C)c4cccc(Cl)c4)cc32)c(C)c1C(=O)N1CCN(C)CC1
Response: 11

###

tested on: U2OS; assay: Incucyte cell viability with U2OS; format: toxicity, cell-based; settings: human, 12 h, 10 µM, compound concentration 10 uM, replicate number 1, timepoint 12 hours; further: filed as whole numbers so only -1 and 0 and 1 occur
Endpoint: Growth Rate

> print(dat)
                              line.notation  reported.value
1  Cc1csc2c(N[C@@H](C)CN3CCN(S(=O)(=O)c4ccc(Cl)c(Cl)c4)CC3)ncnc12               1

Below is a list of compounds. For each, state its recorded Growth Rate.
1. CC[C@@H]1[C@H](F)C(=O)N[C@@H]1COc1nccc2cc(C(N)=O)c(OC)cc12
2. CC1=C(C#N)C(c2ccc3[nH]nc(C)c3c2)C(C#N)=C(C)N1
3. CN1CCN(CCOc2cc(OC3CCOCC3)c3c(Nc4c(Cl)ccc5c4OCO5)ncnc3c2)CC1

Response:
1. 0
2. 0
3. 0

src = ChEMBL document CHEMBL4689842
